I'd be grateful if you could share measured IC50 for these entries.
Tested on: NCI/ADR-RES
assay_info: cells
Assay type: cell-based, human
study_conditions: NCI/ADR-RES cells; read-out: IC50, NCI/ADR-RES

Fill in the blank: the reported IC50 of CON(C1CCC2(C)C(CCC3C2CCC2(C)C(C4=CC(=O)OC4)CCC32O)C1)C1OCC(O)C(O)C1O [5α, L-riboside] is ____.
> 25 µM

Fill in the blank: the reported IC50 of CON([C@H]1CC[C@@]2(C)[C@H](CC[C@@H]3[C@@H]2CC[C@]2(C)[C@@H](C4=CC(=O)OC4)CC[C@]32O)C1)[C@H]1O[C@@H](CO)[C@@H](O)[C@@H](O)[C@@H]1O [21β, L-galactoside] is ____.
1.6 µM

Fill in the blank: the reported IC50 of CON(C1CCC2(C)C(CCC3C2CCC2(C)C(C4=CC(=O)OC4)CCC32O)C1)C1OC(CO)C(O)C(O)C1O [26α, L-mannoside] is ____.
> 25 µM

----------
Test system: NCI/ADR-RES
assay_info: cells
Assay type: cell-based, human
study_conditions: NCI/ADR-RES cells; read-out: IC50, NCI/ADR-RES
property_measured: IC50 (nM)
Give just the numeric value; nM need not be written.

For the record CON(C1CCC2(C)C(CCC3C2CCC2(C)C(C4=CC(=O)OC4)CCC32O)C1)C1OC(CO)C(O)C(O)C1O [40β, D-taloside] , what value of IC50 is listed for NCI/ADR-RES?
1900

For the record CON([C@H]1CC[C@@]2(C)[C@H](CC[C@@H]3[C@@H]2CC[C@]2(C)[C@@H](C4=CC(=O)OC4)CC[C@]32O)C1)[C@@H]1O[C@H](C)[C@H](O)[C@H](O)[C@H]1O [8β, D-fucoside] , what value of IC50 is listed for NCI/ADR-RES?
1500

For the record CON([C@H]1CC[C@@]2(C)[C@H](CC[C@@H]3[C@@H]2CC[C@]2(C)[C@@H](C4=CC(=O)OC4)CC[C@]32O)C1)[C@@H]1O[C@H](CO)[C@@H](O)[C@H](O)[C@H]1F [12β, 2-deoxy-2-fluoro-D-glucoside] , what value of IC50 is listed for NCI/ADR-RES?
2600

For the record CON([C@H]1CC[C@@]2(C)[C@H](CC[C@@H]3[C@@H]2CC[C@]2(C)[C@@H](C4=CC(=O)OC4)CC[C@]32O)C1)[C@H]1O[C@@H](CO)[C@H](O)[C@@H](O)[C@H]1O [26β, L-mannoside] , what value of IC50 is listed for NCI/ADR-RES?
4800

----------
Tested on: NmuMG
assay_info: cells
Format: cell-based, mouse
study_conditions: NmuMG mouse mammary normal epithelial control line; read-out: IC50, NmuMG
I'd be grateful if you could share measured pIC50 for these entries.
// pIC50 here means minus log10 of the molar concentration (mol/L)

For the record CON([C@H]1CC[C@@]2(C)[C@H](CC[C@@H]3[C@@H]2CC[C@]2(C)[C@@H](C4=CC(=O)OC4)CC[C@]32O)C1)[C@@H]1OC[C@@H](O)[C@@H](O)[C@H]1O [6β, D-riboside] , what value of pIC50 is listed for NmuMG?
6.32

For the record CON([C@H]1CC[C@@]2(C)[C@H](CC[C@@H]3[C@@H]2CC[C@]2(C)[C@@H](C4=CC(=O)OC4)CC[C@]32O)C1)[C@H]1O[C@@H](CO)[C@H](O)[C@@H](O)[C@H]1O [26β, L-mannoside] , what value of pIC50 is listed for NmuMG?
5.89
